Origin of values: patent US9156822B2

Test: in vivo
Conditions: mouse, plasma
Parameter AUC(0-inf): see the listing below.
metric-name: AUC(0-inf) (ng·h/mL)

compound="O=C1CCc2ccc(OCCCCN3CCN(c4cccc(Cl)c4Cl)CC3)cc2N1 [Aripiprazole, aripiprazole, reference compound]" recorded_number=445
compound=O=C1CCc2ccc(OCCCCN3CCCN(c4cccc(Cl)c4Cl)CC3)nc2N1 recorded_number=61.5

###

pKi values for the molecules below.
Biological target: D2 receptors (Homo sapiens (Human))
Assay: CHO-D2 radioligand binding assay ([3H]N-methylspiperone competition)
Conditions: CHO-D2 membranes, [3H]N-methylspiperone; read-out: D2 Binding Ki ± SEM
Sequence (P14416 whole entry): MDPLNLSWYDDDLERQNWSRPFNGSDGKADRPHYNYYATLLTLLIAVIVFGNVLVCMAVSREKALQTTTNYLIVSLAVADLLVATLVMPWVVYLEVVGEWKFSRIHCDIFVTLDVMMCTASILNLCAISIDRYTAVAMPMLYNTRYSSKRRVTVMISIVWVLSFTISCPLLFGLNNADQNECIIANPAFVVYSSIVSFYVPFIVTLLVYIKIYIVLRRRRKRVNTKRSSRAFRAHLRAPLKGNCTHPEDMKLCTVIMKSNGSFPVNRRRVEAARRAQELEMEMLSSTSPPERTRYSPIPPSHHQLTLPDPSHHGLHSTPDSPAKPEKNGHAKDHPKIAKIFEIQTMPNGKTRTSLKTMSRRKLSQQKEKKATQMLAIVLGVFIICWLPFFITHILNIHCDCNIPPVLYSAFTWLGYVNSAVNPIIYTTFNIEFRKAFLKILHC
pKi: −log10 of the molar value.
metric-name: pKi

molecule="Clc1cccc(N2CCN(CCCOc3ccc4cn[nH]c4c3)CC2)c1Cl [Compound 20]" recorded_number=6.98
molecule="CC(C)Oc1ccccc1N1CCCN(CCCCOc2ccc3c(c2)NC(=O)CC3)CC1 [Compound 16]" recorded_number=9.06
molecule="CCOc1ccccc1N1CCCN(CCCCOc2ccc3c(n2)NC(=O)CC3)CC1 [Compound 13]" recorded_number=8.36
molecule="COc1ccccc1N1CCCN(CCCCOc2ccc3c(c2)NC(=O)CC3)CC1 [Compound 9]" recorded_number=8.40

###

Biological target: D2 receptors (Homo sapiens (Human), UniProt P14416)
Assay: CHO-D2 radioligand binding assay ([3H]N-methylspiperone competition)
Details: read-out: D2 Binding Ki ± SEM
Ki for assorted molecules
metric-name: Ki (nM)

molecule="O=C1CCc2ccc(OCCCCN3CCCN(c4cccc(Cl)c4Cl)CC3)nc2N1 [Compound 3]" tested_system="D2 receptors (Homo sapiens (Human), UniProt P14416)" recorded_number=1.2
molecule="Clc1cccc(C2CCN(CCCCOc3ccc4scnc4c3)CC2)c1Cl [Compound 21]" tested_system="D2 receptors (Homo sapiens (Human), UniProt P14416)" recorded_number=42

###

Test: in vivo
Conditions: mouse, brain
metric-name: half-life (h)

chemical_smiles=O=C1CCc2ccc(OCCCCN3CCCN(c4cccc(Cl)c4Cl)CC3)nc2N1 metric_name=half-life recorded_number=10.6

###

Target: 5HT2C (Homo sapiens (Human), UniProt P28335)
Sequence (P28335 33-458, species assumed): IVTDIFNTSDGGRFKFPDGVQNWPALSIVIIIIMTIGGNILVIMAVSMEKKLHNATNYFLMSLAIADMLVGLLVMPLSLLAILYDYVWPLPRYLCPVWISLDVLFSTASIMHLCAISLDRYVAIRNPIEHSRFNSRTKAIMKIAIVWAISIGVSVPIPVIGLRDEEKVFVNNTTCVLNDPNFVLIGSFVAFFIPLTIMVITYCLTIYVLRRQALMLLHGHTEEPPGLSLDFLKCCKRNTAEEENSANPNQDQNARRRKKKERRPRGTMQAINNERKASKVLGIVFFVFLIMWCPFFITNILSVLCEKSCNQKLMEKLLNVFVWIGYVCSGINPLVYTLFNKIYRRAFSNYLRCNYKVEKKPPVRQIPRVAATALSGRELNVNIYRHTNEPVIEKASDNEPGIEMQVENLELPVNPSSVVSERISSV
Assay: 5HT2C FLIPR (Ca2+ mobilization)
Assay type: cell-based
Settings: read-out: 5HT2C/FLIPR (IC50)
metric-name: IC50

compound="O=C1CCc2ccc(OCCCCN3CCCN(c4cccc(Cl)c4Cl)CC3)nc2N1 [Compound 3]" result="2200 nM"

###

Assay: in vivo
Settings: mouse, plasma
metric-name: concentration at 0.5 h (ng/mL)

chemical_smiles=O=C1CCc2ccc(OCCCCN3CCCN(c4cccc(Cl)c4Cl)CC3)nc2N1 recorded_number=23.7

###

As shown below, each of these molecules has a reported AUC(0-t) value.
Assay: in vivo
Conditions: mouse, plasma
metric-name: AUC(0-t) (ng·h/mL)

molecule="O=C1CCc2ccc(OCCCCN3CCCN(c4cccc(Cl)c4Cl)CC3)nc2N1 [Compound 3]" metric_name=AUC(0-t) recorded_number=59.9
molecule="O=C1CCc2ccc(OCCCCN3CCN(c4cccc(Cl)c4Cl)CC3)cc2N1 [Aripiprazole, aripiprazole, reference compound]" metric_name=AUC(0-t) recorded_number=431

###

Assay: in vivo
Settings: mouse, brain
metric-name: concentration at 24 h (ng/g)

compound="O=C1CCc2ccc(OCCCCN3CCCN(c4cccc(Cl)c4Cl)CC3)nc2N1 [Compound 3]" measure_unit=ng/g recorded_number=4.2

###

Target: H1-histamine receptor (Homo sapiens (Human), UniProt P35367)
Sequence (P35367 whole entry): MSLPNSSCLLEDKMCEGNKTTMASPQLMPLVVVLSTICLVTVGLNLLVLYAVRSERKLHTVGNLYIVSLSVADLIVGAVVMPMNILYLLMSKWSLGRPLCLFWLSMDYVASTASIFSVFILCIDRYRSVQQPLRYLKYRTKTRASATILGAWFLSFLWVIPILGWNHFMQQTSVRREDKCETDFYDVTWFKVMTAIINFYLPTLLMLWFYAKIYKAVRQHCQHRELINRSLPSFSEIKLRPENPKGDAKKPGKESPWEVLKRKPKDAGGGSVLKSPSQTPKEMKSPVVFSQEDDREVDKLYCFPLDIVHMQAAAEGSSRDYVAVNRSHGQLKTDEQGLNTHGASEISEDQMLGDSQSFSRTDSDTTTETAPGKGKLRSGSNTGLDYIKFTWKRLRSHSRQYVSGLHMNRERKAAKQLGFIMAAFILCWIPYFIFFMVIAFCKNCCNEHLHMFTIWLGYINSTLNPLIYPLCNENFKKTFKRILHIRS
Test: H1 binding
Listing: Ki of selected compounds
metric-name: Ki

chemical_smiles=O=C1CCc2ccc(OCCCCN3CCCN(c4cccc(Cl)c4Cl)CC3)nc2N1 metric_name=Ki result="6.1 nM"
chemical_smiles=O=C1CCc2ccc(OCCCCN3CCCN(c4cccc(Cl)c4Cl)CC3)cc2N1 metric_name=Ki result="4.5 nM"

###

Target: D2 receptors (Homo sapiens (Human))
Test: D2 β-arrestin recruitment (Tango) assay
Type: cell-based
Settings: HTLA cells; read-out: β-arrestin (Tango) EC50
Sequence (P14416 whole entry, looked up): as the sequence (P14416 whole entry) above
metric-name: EC50 (nM)

compound=Clc1cccc(N2CCN(CCCOc3ccc4cn[nH]c4c3)CC2)c1Cl tested_system="D2 receptors (Homo sapiens (Human))" metric_name=EC50 recorded_number=59
compound=O=C1NCCc2ccc(OCCCN3CCCN(c4cccc(Cl)c4Cl)CC3)cc21 tested_system="D2 receptors (Homo sapiens (Human))" metric_name=EC50 recorded_number=8
compound=CC(C)Oc1ccccc1N1CCCN(CCCCOc2ccc3c(c2)NC(=O)CC3)CC1 tested_system="D2 receptors (Homo sapiens (Human))" metric_name=EC50 recorded_number=4.2
compound="O=C1CCc2ccc(OCC3CCC(CN4CCN(c5cccc(Cl)c5Cl)CC4)CC3)cc2N1 (stereo not drawn)" tested_system="D2 receptors (Homo sapiens (Human))" metric_name=EC50 recorded_number=2100
compound=CC(C)Oc1ccccc1N1CCCN(CCCCOc2ccc3ccc(=O)[nH]c3c2)CC1 tested_system="D2 receptors (Homo sapiens (Human))" metric_name=EC50 recorded_number=4.2
compound=COc1ccccc1N1CCCN(CCCCOc2ccc3c(c2)NC(=O)CC3)CC1 tested_system="D2 receptors (Homo sapiens (Human))" metric_name=EC50 recorded_number=4.6
compound=O=C1CCc2ccc(Oc3ccc(CN4CCN(c5cccc(Cl)c5Cl)CC4)cc3)cc2N1 tested_system="D2 receptors (Homo sapiens (Human))" metric_name=EC50 recorded_number=399
compound=O=c1[nH]c2ccc(OCCCCN3CCN(c4cccc(Cl)c4Cl)CC3)cc2[nH]1 tested_system="D2 receptors (Homo sapiens (Human))" metric_name=EC50 recorded_number=16
compound=Clc1cccc(C2CCN(CCCCOc3ccc4scnc4c3)CC2)c1Cl tested_system="D2 receptors (Homo sapiens (Human))" metric_name=EC50 recorded_number=82

###

Molecular target: 5HT2A (Homo sapiens (Human), UniProt P28223)
Assay: biochemical
pKi: −log10 of the molar value.
metric-name: pKi

molecule="O=C1CCc2ccc(OCCCCN3CCCN(c4cccc(Cl)c4Cl)CC3)nc2N1 [Compound 3]" tested_system="5HT2A (Homo sapiens (Human), UniProt P28223)" metric_name=pKi result="6.60 to 9.22"

###

pIC50: −log10 of the molar value.
This document collects pIC50 values reported for 5HT2B (Homo sapiens (Human)).
metric-name: pIC50

chemical_smiles=O=C1CCc2ccc(OCCCCN3CCCN(c4cccc(Cl)c4Cl)CC3)cc2N1 metric_name=pIC50 recorded_number=6.94
chemical_smiles=O=C1CCc2ccc(OCCCCN3CCCN(c4cccc(Cl)c4Cl)CC3)nc2N1 metric_name=pIC50 recorded_number=7.12

###

Target: D2 receptors (Homo sapiens (Human))
Experiment: D2 β-arrestin recruitment (Tango) assay
Assay type: cell-based
Settings: normalized to quinpirole (100%)
Procedure: The next day, cells were plated in white, clear-bottom, 384-well plates (Greiner, 10,000 cells/well, 50 μl/well) in DMEM containing 1% dialyzed fetal bovine serum. […] Data were normalized to vehicle (0%) and quinpirole (100%) controls and regressed using the sigmoidal dose-response function built into GraphPad Prism 4.0.
metric-name: Emax (%)

compound="CC(=O)Nc1cc(OCCCCN2CCN(c3cccc(Cl)c3Cl)CC2)ccc1C [Compound 43]" measure_unit=% recorded_number=59
compound="O=c1[nH]c2ccc(OCCCN3CCCN(c4cccc(Cl)c4Cl)CC3)cc2[nH]1 [Compound 19]" measure_unit=% recorded_number=48
compound="O=C1NCCc2ccc(OCCCCN3CCN(c4cccc(Cl)c4Cl)CC3)cc21 [Compound 25]" measure_unit=% recorded_number=55
compound="COc1ccccc1N1CCCN(CCCCOc2ccc3c(n2)NC(=O)CC3)CC1 [Compound 11]" measure_unit=% recorded_number=21
compound="O=C1CCc2ccc(Oc3ccc(CN4CCN(c5cccc(Cl)c5Cl)CC4)cc3)cc2N1 [Compound 31]" measure_unit=% recorded_number=49
compound="CC(C)Oc1ccccc1N1CCCN(CCCCOc2ccc3c(c2)NC(=O)CC3)CC1 [Compound 16]" measure_unit=% recorded_number=53
compound="O=c1ccc2ccc(OCCCN3CCCN(c4cccc(Cl)c4Cl)CC3)cc2[nH]1 [Compound 15]" measure_unit=% recorded_number=84
compound="Clc1cccc(N2CCN(CCCOc3ccc4cn[nH]c4c3)CC2)c1Cl [Compound 20]" measure_unit=% recorded_number=90
compound="COc1ccccc1N1CCCN(CCCCOc2ccc3ccc(=O)[nH]c3c2)CC1 [Compound 10]" measure_unit=% recorded_number=16
compound="Clc1cccc(N2CCN(CCCCOc3ccc4cn[nH]c4c3)CC2)c1Cl [Compound 28]" measure_unit=% recorded_number=65
compound="O=C1CCc2ccc(Oc3cccc(CN4CCN(c5cccc(Cl)c5Cl)CC4)c3)cc2N1 [Compound 30]" measure_unit=% recorded_number=58
compound="O=C1CCc2ccc(OCCCCN3CCN(c4cccc5c4OCCO5)CC3)nc2N1 [Compound 41]" measure_unit=% recorded_number=31
compound="O=C1NCCc2ccc(OCCCCN3CCC(c4cccc(Cl)c4Cl)CC3)cc21 [Compound 33]" measure_unit=% recorded_number=64
compound="CC(C)Oc1ccccc1N1CCCN(CCCCOc2ccc3ccc(=O)[nH]c3c2)CC1 [Compound 18]" measure_unit=% recorded_number=58
compound="O=C1CCc2ccc(OCCCCN3CCCN(c4cccc(Cl)c4Cl)CC3)nc2N1 [Compound 3]" measure_unit=% recorded_number=44
compound="Clc1cccc(C2CCN(CCCCOc3ccc4scnc4c3)CC2)c1Cl [Compound 21]" measure_unit=% recorded_number=81
compound="CCOc1ccccc1N1CCCN(CCCCOc2ccc3ccc(=O)[nH]c3c2)CC1 [Compound 14]" measure_unit=% recorded_number=58
compound="COc1ccccc1N1CCCN(CCCCOc2ccc3c(c2)NC(=O)CC3)CC1 [Compound 9]" measure_unit=% recorded_number=26
compound="CC(C)Oc1ccccc1N1CCCN(CCCCOc2ccc3c(n2)NC(=O)CC3)CC1 [Compound 17]" measure_unit=% recorded_number=56
compound="Clc1cccc(N2CCN(CCCCOc3ccc4scnc4c3)CC2)c1Cl [Compound 36]" measure_unit=% recorded_number=64
compound="COc1ccccc1N1CCN(CCCCOc2ccc3c(n2)NC(=O)CC3)CC1 [Compound 37]" measure_unit=% recorded_number=67
compound="Clc1cccc(N2CCN(CCCOc3ccc4scnc4c3)CC2)c1Cl [Compound 23]" measure_unit=% recorded_number=91
compound="O=C1CCc2ccc(OCC3CCC(CN4CCN(c5cccc(Cl)c5Cl)CC4)CC3)cc2N1 (centres unmarked) [Compound 26]" measure_unit=% recorded_number=51
compound="CCOc1ccccc1N1CCCN(CCCCOc2ccc3c(n2)NC(=O)CC3)CC1 [Compound 13]" measure_unit=% recorded_number=43
compound="CCOc1ccccc1N1CCCN(CCCCOc2ccc3c(c2)NC(=O)CC3)CC1 [Compound 12]" measure_unit=% recorded_number=41
compound="O=C1NCCc2ccc(OCCCN3CCN(c4cccc(Cl)c4Cl)CC3)cc21 [Compound 32]" measure_unit=% recorded_number=83
compound="O=C1NCCc2ccc(OCCCN3CCCN(c4cccc(Cl)c4Cl)CC3)cc21 [Compound 5]" measure_unit=% recorded_number=47
compound="O=C1CCc2ccc(OCCCCN3CCN(c4cccc5c4OCCO5)CC3)cc2N1 [Compound 40]" measure_unit=% recorded_number=33
compound="O=c1[nH]c2ccc(OCCCN3CCN(c4cccc(Cl)c4Cl)CC3)cc2[nH]1 [Compound 34]" measure_unit=% recorded_number=78
